Assignment: determine reported inhibition for the given compounds.
Test: 384-well plate pilot, post-Golgi transport modulator project, inhibition of yeast transport mutant growth (AID 636); also: test concentration not given here
Conditions: absorbance 615 nm, about 18 h, stronger effect = higher value
Give bare numbers, in %.

Here is how some compounds turned out for inhibition.
COCCN(C(=O)c1csnn1)C(C(=O)NC1CCCCC1)c1cccs1 (stereo unspecified)
-7.6
CC(C)(Oc1ccc(Cl)cc1)C(=O)NC1CCSC1=O (stereo unspecified)
0.27
CCC(C)NC(=O)CC1Oc2ccc(C)cc2NC1=O (stereo unspecified)
0.13
O=C(NCc1cccs1)C1CCCN(c2ncccn2)C1 (stereo unspecified)
-2.4
O=C(Nc1ccccn1)NC(C(F)(F)F)C(F)(F)F
-1.07

Switching to the query record.
Form field: reported inhibition of `Cn1c(=O)c2c(nc(Oc3ccc4c(c3)OCO4)n2Cc2ccc(F)cc2)n(C)c1=O`
-2.84
